Experimental Details: Drug uptake in po dosed rat plasma after 0.5 hrs by LC-MS/MS analysis
Assay type: ADME, organism-based
Measured Quantity: concentration at 0.5 h (ng/mL)
API: value field is a number in ng/mL; no unit string.

Q. Please look up its concentration at 0.5 h: O=C(C1CC1)N1CC2CC(C1)N2
A. 123

----------
Test Target: Neuronal acetylcholine receptor; alpha3/alpha6/beta2/beta3 (Homo sapiens, UniProt P17787+P32297+Q05901+Q15825)
Sequence (P17787 whole entry): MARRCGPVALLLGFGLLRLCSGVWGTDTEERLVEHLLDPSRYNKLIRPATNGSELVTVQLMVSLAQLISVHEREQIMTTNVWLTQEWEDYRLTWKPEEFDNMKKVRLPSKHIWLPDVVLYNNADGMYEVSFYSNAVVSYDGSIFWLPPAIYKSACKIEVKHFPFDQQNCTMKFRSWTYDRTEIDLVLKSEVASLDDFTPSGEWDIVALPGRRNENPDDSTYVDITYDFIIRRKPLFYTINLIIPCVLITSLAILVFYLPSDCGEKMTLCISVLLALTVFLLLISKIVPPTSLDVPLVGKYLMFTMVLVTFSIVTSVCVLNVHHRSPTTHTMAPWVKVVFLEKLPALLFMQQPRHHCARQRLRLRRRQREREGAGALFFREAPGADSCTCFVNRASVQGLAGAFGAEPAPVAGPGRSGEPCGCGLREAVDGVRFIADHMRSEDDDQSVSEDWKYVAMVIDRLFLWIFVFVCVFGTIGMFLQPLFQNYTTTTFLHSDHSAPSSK
Sequence (P32297 whole entry): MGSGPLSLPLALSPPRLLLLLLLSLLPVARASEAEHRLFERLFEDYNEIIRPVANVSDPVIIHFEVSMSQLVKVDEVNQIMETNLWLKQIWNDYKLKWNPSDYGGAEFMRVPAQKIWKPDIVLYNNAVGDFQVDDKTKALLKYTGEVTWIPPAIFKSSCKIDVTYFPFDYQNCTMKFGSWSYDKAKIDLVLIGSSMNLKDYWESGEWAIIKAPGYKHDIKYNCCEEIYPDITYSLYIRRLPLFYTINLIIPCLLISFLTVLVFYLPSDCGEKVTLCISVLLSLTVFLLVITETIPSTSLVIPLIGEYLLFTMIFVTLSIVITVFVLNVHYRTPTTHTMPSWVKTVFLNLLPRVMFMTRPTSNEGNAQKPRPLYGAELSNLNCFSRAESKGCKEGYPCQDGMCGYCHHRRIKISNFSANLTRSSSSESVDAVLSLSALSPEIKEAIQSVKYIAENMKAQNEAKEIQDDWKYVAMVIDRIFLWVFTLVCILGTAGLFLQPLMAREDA
Sequence (Q15825 whole entry): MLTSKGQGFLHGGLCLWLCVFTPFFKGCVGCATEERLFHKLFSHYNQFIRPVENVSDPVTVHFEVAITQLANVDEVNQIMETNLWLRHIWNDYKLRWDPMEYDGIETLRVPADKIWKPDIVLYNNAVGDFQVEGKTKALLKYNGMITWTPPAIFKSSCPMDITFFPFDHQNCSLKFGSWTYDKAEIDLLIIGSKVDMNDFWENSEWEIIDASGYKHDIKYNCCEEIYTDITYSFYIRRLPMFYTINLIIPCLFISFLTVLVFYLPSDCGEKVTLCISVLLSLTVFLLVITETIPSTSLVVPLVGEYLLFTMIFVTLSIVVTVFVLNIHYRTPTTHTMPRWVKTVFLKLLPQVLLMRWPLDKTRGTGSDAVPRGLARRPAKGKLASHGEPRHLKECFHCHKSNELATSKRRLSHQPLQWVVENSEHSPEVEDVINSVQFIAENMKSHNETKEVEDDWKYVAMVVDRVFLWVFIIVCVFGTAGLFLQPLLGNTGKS
Sequence (Q05901 whole entry): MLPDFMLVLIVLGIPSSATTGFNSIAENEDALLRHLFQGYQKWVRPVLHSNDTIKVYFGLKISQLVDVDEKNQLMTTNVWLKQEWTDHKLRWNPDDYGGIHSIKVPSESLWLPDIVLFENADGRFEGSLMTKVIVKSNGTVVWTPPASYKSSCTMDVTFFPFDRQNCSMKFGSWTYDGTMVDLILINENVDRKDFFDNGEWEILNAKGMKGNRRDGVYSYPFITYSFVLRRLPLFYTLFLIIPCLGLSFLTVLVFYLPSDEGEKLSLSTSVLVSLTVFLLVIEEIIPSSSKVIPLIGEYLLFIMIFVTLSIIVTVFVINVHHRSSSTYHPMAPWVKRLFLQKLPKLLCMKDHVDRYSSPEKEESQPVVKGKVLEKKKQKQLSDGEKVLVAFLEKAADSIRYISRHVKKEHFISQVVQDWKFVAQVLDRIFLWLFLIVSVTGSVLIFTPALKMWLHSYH
Experimental Details: Agonist activity at human alpha6/alpha3beta2beta3 nAChR transfected in CHO cells assessed as calcium flux by FLIPR assay
pEC50: −log10 of the molar value.
Use label 1 when the recorded pEC50 is no lower than 6; use label 0 when it is lower.

Q. Form field: pEC50 at least 6? Entry: O=C(C1CC1)N1CC2CC(C1)N2
A. label 1

Q. Form field: pEC50 at least 6? Entry: O=C([C@@H]1C[C@H]1F)N1CC2CC(C1)N2
A. label 1

Q. Form field: pEC50 at least 6? Entry: C[C@H]1C[C@H]1C(=O)N1CC2CC(C1)N2
A. label 0

Q. Form field: pEC50 at least 6? Entry: O=C(C1CCCC1)N1CC2CC(C1)N2
A. label 0

Q. Form field: pEC50 at least 6? Entry: CC(C)C(=O)N1CC2CC(C1)N2
A. label 0

Q. Form field: pEC50 at least 6? Entry: O=C([C@H]1C[C@@H]1F)N1CC2CC(C1)N2
A. label 1

Q. Form field: pEC50 at least 6? Entry: C[C@H]1C[C@@H]1C(=O)N1CC2CC(C1)N2
A. label 0

Q. Form field: pEC50 at least 6? Entry: O=C([C@@H]1C[C@@H]1F)N1CC2CC(C1)N2
A. label 1

Q. Form field: pEC50 at least 6? Entry: CC1(C)CC1C(=O)N1CC2CC(C1)N2 (stereo unspecified)
A. label 1

Q. Form field: pEC50 at least 6? Entry: C[C@@H]1C[C@H]1C(=O)N1CC2CC(C1)N2
A. label 1
